Experiment: Plasma pharmacokinetic parameters following intravenous (IV) or oral (PO) administration in rats
Assay type: in vivo, Sprague-Dawley rats
Settings: male, Sprague-Dawley, rat, plasma, iv, 0.5 mg/kg, IV 0.5 mg/kg, injectable water, read-out: Tmax
Listed here are molecules together with their documented Tmax.

{"columns": ["Molecular string", "Tmax [min]"],
 "data": [
  ["COCCOc1cnc(N2CCN(CCN(C)c3cc4nc(-c5ncco5)nn4c(N)n3)CC2)c(C(F)(F)F)c1", 1.98],
  ["COCCOc1ccc(N2CCN(CCN(C)c3cc4nc(-c5ncco5)nn4c(N)n3)CC2)cc1", 2]
]}

* * *

Experiment: Plasma pharmacokinetic parameters following intravenous (IV) or oral (PO) administration in rats
Type: in vivo, Sprague-Dawley rats
Conditions: rat, IV
Experimental: Adult male Sprague-Dawley rats (230-250 g) (Charles River Labs, Hollister, CA) were utilized for the study. There were 2 rats/group. All animals were food fasted overnight with water provided ad libitum at all times. […] The morning of each dosing, individual doses were calculated based on current body weights on the day of dosing. […] Pharmacokinetic parameters (PK) were determined by non-compartmental analysis (NCA) using Phoenix 64 WinNonlin (version 8) and Dotmatics (version 5.0). […]
Readout: Total clearance as % liver blood flow

{"columns": ["Molecular string", "Measurement"],
 "data": [
  ["COCCOc1cnc(N2CCN(CCN(C)c3cc4nc(-c5ncco5)nn4c(N)n3)CC2)c(C(F)(F)F)c1", "~10 % liver blood flow"],
  ["COCCOc1cnc(N2CCN(CCN(C)c3cc4nc(-c5ncco5)nn4c(N)n3)CC2)c(F)c1", "45-56 % liver blood flow"],
  ["COCCOc1ccc(N2CCN(CCN(C)c3cc4nc(-c5ncco5)nn4c(N)n3)CC2)cc1", "40-60 % liver blood flow"],
  ["COCCOc1cnc(N2CCN(CCN(C)c3cc4nc(-c5ncco5)nn4c(N)n3)CC2)c(Cl)c1", "~28 % liver blood flow"]
]}

* * *

Catalogue of Cmax readings, one per entry.
Experiment: Plasma pharmacokinetic parameters following intravenous (IV) or oral (PO) administration in rats
Assay type: in vivo, Sprague-Dawley rats
Settings: male, Sprague-Dawley, rat, plasma, po, 2.5 mg/kg, PO 2.5 mg/kg via gavage, injectable water, read-out: Cmax
Procedure: Adult male Sprague-Dawley rats (230-250 g) (Charles River Labs, Hollister, CA) were utilized for the study. There were 2 rats/group. All animals were food fasted overnight with water provided ad libitum at all times. […] The morning of each dosing, individual doses were calculated based on current body weights on the day of dosing. […] Pharmacokinetic parameters (PK) were determined by non-compartmental analysis (NCA) using Phoenix 64 WinNonlin (version 8) and Dotmatics (version 5.0). […]

{"columns": ["Molecule", "Cmax, ng/mL"],
 "data": [
  ["COCCOc1cnc(N2CCN(CCN(C)c3cc4nc(-c5ncco5)nn4c(N)n3)CC2)c(F)c1 [Compound 4]", 231],
  ["COCCOc1cnc(N2CCN(CCN(C)c3cc4nc(-c5ncco5)nn4c(N)n3)CC2)c(C(F)(F)F)c1 [Compound 19]", 1300],
  ["COCCOc1cnc(N2CCN(CCN(C)c3cc4nc(-c5ncco5)nn4c(N)n3)CC2)c(Cl)c1 [Compound 14]", 373]
]}

* * *

Experiment: Brain-to-plasma ratio (B/P) after administration
Type: in vivo, Sprague-Dawley rats
Conditions: Sprague-Dawley, rat, oral, 2.5 mg/kg; Table 6; brain-to-plasma ratio at 1 h
Readout: Kp at 1 h

{"columns": ["Molecular string", "Readout", "Measurement"],
 "data": [
  ["COCCOc1cnc(N2CCN(CCN(C)c3cc4nc(-c5ncco5)nn4c(N)n3)CC2)nc1", "Kp at 1 h", 0.04],
  ["COCCOc1ccc(N2CCN(CCN(C)c3cc4nc(-c5ncco5)nn4c(N)n3)CC2)c(Cl)c1", "Kp at 1 h", 0.05],
  ["[2H]C([2H])([2H])OCCOc1ccc(N2CCN(CCN(C)c3cc4nc(-c5ncco5)nn4c(N)n3)CC2)cc1", "Kp at 1 h", 0.07],
  ["[2H]C([2H])([2H])OC([2H])([2H])C([2H])([2H])Oc1ccc(N2CCN(C([2H])([2H])C([2H])([2H])N(c3cc4nc(-c5ncco5)nn4c(N)n3)C([2H])([2H])[2H])CC2)cc1", "Kp at 1 h", 0.06],
  ["[2H]C([2H])(N1CCN(c2ccc(OCCOC)cc2)CC1)C([2H])([2H])N(C)c1cc2nc(-c3ncco3)nn2c(N)n1", "Kp at 1 h", 0.04],
  ["COCCOc1ncc(N2CCN(CCN(C)c3cc4nc(-c5ncco5)nn4c(N)n3)CC2)cc1C(F)(F)F", "Kp at 1 h", 0.03]
]}

* * *

The following compounds are listed with their measured AUC(0-t) values.
Test: Plasma pharmacokinetic parameters following intravenous (IV) or oral (PO) administration in rats
Assay type: in vivo, Sprague-Dawley rats
Details: male, Sprague-Dawley, rat, plasma, iv, 0.5 mg/kg, IV 0.5 mg/kg, injectable water
Protocol: Adult male Sprague-Dawley rats (230-250 g) (Charles River Labs, Hollister, CA) were utilized for the study. There were 2 rats/group. All animals were food fasted overnight with water provided ad libitum at all times. […] The morning of each dosing, individual doses were calculated based on current body weights on the day of dosing. […] Pharmacokinetic parameters (PK) were determined by non-compartmental analysis (NCA) using Phoenix 64 WinNonlin (version 8) and Dotmatics (version 5.0). […]
Readout: AUC(0-t)

{"columns": ["Molecular string", "Measurement"],
 "data": [
  ["COCCOc1cnc(N2CCN(CCN(C)c3cc4nc(-c5ncco5)nn4c(N)n3)CC2)c(C(F)(F)F)c1", "1220 ng·h/mL"],
  ["COCCOc1cnc(N2CCN(CCN(C)c3cc4nc(-c5ncco5)nn4c(N)n3)CC2)c(F)c1", "249 ng·h/mL"],
  ["COCCOc1ccc(N2CCN(CCN(C)c3cc4nc(-c5ncco5)nn4c(N)n3)CC2)cc1", "335 ng·h/mL"],
  ["COCCOc1cnc(N2CCN(CCN(C)c3cc4nc(-c5ncco5)nn4c(N)n3)CC2)c(Cl)c1", "523 ng·h/mL"]
]}

* * *

Recorded Tmax, one value per entry.
Test: Plasma pharmacokinetic parameters following intravenous (IV) or oral (PO) administration in rats
Assay type: in vivo, Sprague-Dawley rats
Details: male, Sprague-Dawley, rat, plasma, po, 2.5 mg/kg, PO 2.5 mg/kg via gavage, injectable water, read-out: Tmax
Readout: Tmax

{"columns": ["Molecular string", "Measurement"],
 "data": [
  ["COCCOc1ccc(N2CCN(CCN(C)c3cc4nc(-c5ncco5)nn4c(N)n3)CC2)cc1", "0.75 to 1 h"],
  ["COCCOc1cnc(N2CCN(CCN(C)c3cc4nc(-c5ncco5)nn4c(N)n3)CC2)c(C(F)(F)F)c1", "1.25 h"],
  ["COCCOc1cnc(N2CCN(CCN(C)c3cc4nc(-c5ncco5)nn4c(N)n3)CC2)c(Cl)c1", "1 h"],
  ["COCCOc1cnc(N2CCN(CCN(C)c3cc4nc(-c5ncco5)nn4c(N)n3)CC2)c(F)c1", "0.5 to 0.75 h"]
]}

* * *

AUC values by entry
Assay: Plasma pharmacokinetic parameters following intravenous (IV) or oral (PO) administration in rats
Assay type: in vivo, Sprague-Dawley rats
Conditions: male, Sprague-Dawley, rat, plasma, 2.5 mg/kg; Table 6; oral (PO) administration essentially as described in Example 28

{"columns": ["Molecular string", "AUC [ng·h/mL]"],
 "data": [
  ["COCCOc1ccc(N2CCN(CCN(C)c3nc(N)n4nc(-c5ncco5)nc4n3)CC2)cc1", 320],
  ["CN(CCN1CCN(c2ccc(OCCOC(F)(F)F)cc2)CC1)c1cc2nc(-c3ncco3)nn2c(N)n1", 971],
  ["[2H]C([2H])([2H])OC([2H])([2H])C([2H])([2H])Oc1ccc(N2CCN(C([2H])([2H])C([2H])([2H])N(c3cc4nc(-c5ncco5)nn4c(N)n3)C([2H])([2H])[2H])CC2)cc1", 1200],
  ["COCCOc1ncc(N2CCN(CCN(C)c3cc4nc(-c5ncco5)nn4c(N)n3)CC2)cc1C(F)(F)F", 280],
  ["[2H]C([2H])(N1CCN(c2ccc(OCCOC)cc2)CC1)C([2H])([2H])N(C)c1cc2nc(-c3ncco3)nn2c(N)n1", 1170],
  ["[2H]C([2H])([2H])OCCOc1ccc(N2CCN(CCN(C)c3cc4nc(-c5ncco5)nn4c(N)n3)CC2)cc1", 1020],
  ["[2H]C([2H])([2H])OCCOc1ccc(N2CCN(CCN(c3cc4nc(-c5ncco5)nn4c(N)n3)C([2H])([2H])[2H])CC2)cc1", 1200],
  ["[2H]C([2H])([2H])OC([2H])([2H])C([2H])([2H])Oc1ccc(N2C([2H])([2H])C([2H])([2H])N(C([2H])([2H])C([2H])([2H])N(c3cc4nc(-c5ncco5)nn4c(N)n3)C([2H])([2H])[2H])C([2H])([2H])C2([2H])[2H])cc1", 1170],
  ["[2H]C([2H])([2H])OCCOc1cnc(N2CCN(CCN(C)c3cc4nc(-c5ncco5)nn4c(N)n3)CC2)c(F)c1", 708],
  ["[2H]C([2H])([2H])OC([2H])([2H])C([2H])([2H])Oc1cnc(N2CCN(CCN(C)c3cc4nc(-c5ncco5)nn4c(N)n3)CC2)c(F)c1", 709],
  ["COCCOc1ccc(N2CCN(CCN(C)c3cc4nc(-c5ncco5)nn4c(N)n3)CC2)nc1", 336],
  ["COCCOc1ccc(N2CCN(CCNc3cc4nc(-c5ncco5)nn4c(N)n3)CC2)cc1", 1070],
  ["COCCOc1cnc(N2CCN(CCN(C)c3cc4nc(-c5ncco5)nn4c(N)n3)CC2)nc1", 376]
]}

Where these numbers come from: patent US12325708B2
